Origin of measurements: paper PMC9998351

experiment: Intravenous pharmacokinetics in rats; type: in vivo; settings: male, Sprague Dawley, rat, plasma, iv, 1 mg/kg, C0, male rats, 1 mg/kg IV, individual rat
experimental-endpoint: C0 (ng/mL)

INSERT INTO measurements (substance_smiles, endpoint_value) VALUES
  ('C[C@]12CC[C@H](n3ccnc3)CC1=CC[C@@H]1[C@@H]2CC[C@]2(C)C(n3cnc4ccccc43)=CC[C@@H]12', 254);

###

experiment: Oral pharmacokinetics and bioavailability in rats; type: in vivo; details: female, Sprague Dawley, rat, plasma, po, 10 mg/kg, Cmax, female rats, 10 mg/kg PO, individual rat
experimental-endpoint: Cmax (ng/mL)

INSERT INTO measurements (substance_smiles, u, endpoint_value) VALUES
  ('C[C@]12CC[C@H](n3ccnc3)CC1=CC[C@@H]1[C@@H]2CC[C@]2(C)C(n3cnc4ccccc43)=CC[C@@H]12', 'ng/mL', 755);
